Tested on: Trypanosoma brucei brucei
Assay protocol: GSK_TCAKS: pIC50 Trypanosoma brucei viability assay using luminiscence. Assay plates (1536-well) were prepared. T. brucei cultures were harvested and counted in a CASY cell counter. A parasite suspension was prepared at a final concentration of 5 * 10^4 cells/mL in complete HMI9 medium and 6uL was dispensed to all wells containing compounds using a Multidrop Combi dispenser. 6uL of HMI9 media with 0.4% DMSO were dispensed to control columns. Plates were incubated for 24 h at 37C, 5% CO2 then tempered for 10 min at room temperature. ATP content was quantified by adding 4 uL of CellTiter-Glo Reagent (Promega) according to the manufacturer's instructions. Luminescence was measured using a ViewLux.
Type: functional, organism-based
Assay context: Lister 427, CASY
Property: log10(IC50); scope: individual compounds
Would you kindly interpret these values as log10 of IC50 expressed in nM?

Compound	log10(IC50)
N#Cc1ccc(C(=O)Nc2cccc(-c3cccc(CN4CCC(O)CC4)c3)c2)cc1	2.90
COc1cc(Cl)c(C)cc1NC(=O)c1ccc([N+](=O)[O-])s1	4.00
O=C(NCc1nnc2n1CCCCC2)c1csc(-c2ccccc2)n1	2.60

Give measured log10(IC50) for CCCCCNC(=O)c1c[nH]c2ccc(S(=O)(=O)N(C)c3ccc(OCC)cc3)cc2c1=O (Trypanosoma brucei brucei).
2.40

Supply log10(IC50) measured with Trypanosoma brucei brucei for Cc1cc(NC(=O)c2ccc([N+](=O)[O-])s2)ccc1Br .
3.70

Report measured log10(IC50) on Trypanosoma brucei brucei; entry: COc1ccc2nccc(NC(=O)C3(OC)CCN(CC(O)c4ccc5c(c4)OCCO5)CC3)c2n1 (configuration not stated)
2.70

For Trypanosoma brucei brucei, give log10(IC50) of the listed compound: Cn1nc(-c2ccc(NC(=O)Cc3ccccc3Cl)cc2)c2c(N)ncnc21
2.40

Find the measured log10(IC50) of CS(=O)(=O)c1cccc(-c2cnc(N)c3c(-c4ccc(CO)cc4)csc23)c1 with Trypanosoma brucei brucei as test system.
3.70

Please report the measured log10(IC50) for N#Cc1ccc(Br)cc1[N+](=O)[O-] tested on Trypanosoma brucei brucei.
2.30

Write down the reported log10(IC50) (system: Trypanosoma brucei brucei) of COc1ccc(OC)c(NC(=O)c2ccc([N+](=O)[O-])o2)c1
1.80

Return reported log10(IC50) for target or system Trypanosoma brucei brucei, item O=c1cc(NCCCNCc2c[nH]c3ccc(Br)cc23)[nH]c2ccccc12 .
2.90

Under Trypanosoma brucei brucei: report log10(IC50) of O=C(Cn1cnc2c(-c3ccccc3)csc2c1=O)N1CCCCC1 .
3.00

---

Assay protocol: GSK_TCAKS: pIC50 HepG2 human cell line viability assay using luminiscence. […] Seeding density was checked to ensure that new mono-layers were not more than 50% confluent at the time of harvesting. Cell suspension was added to 500 mL of the same medium at a final density of 1.2 * 10^5 cells/mL. This cell suspension was dispensed (25 uL, 3000 cells per well) into 384-well clear-bottom plates using a Multidrop Combi dispenser. Prior to addition of the cell suspension, the screening compounds (250 nL) were pre-dispensed into the plates with an Echo liquid handler. Plates were incubated for 48 h at 37C, 5% CO2. After incubation, plates equilibrated at room temperature for 30 min before proceeding to develop the luminescent signal. The signal developer, CellTiter-Glo Reagent, was allowed to equilibrate at room temperature for 30 min and added to the plates (25uL per well) using a Multidrop Combi dispenser. Plates were left for 10 min at room temperature for stabilization and then read using a ViewLux.
Type: toxicity, cell-based
Recorded metric: IC50 at 48 h

Consider the following illustrative entries.
Molecule	Recorded metric	Measured value
COc1ccc(-c2cnc(C)o2)cc1S(=O)(=O)Nc1ccc(C)cc1C	IC50 at 48 h	> 100 µM
COc1cccc(C(=O)[C@H]2C[C@@H]2CN(Cc2cccnc2)Cc2cccnc2)c1	IC50 at 48 h	> 100 µM
CC1=NN(C(=O)CCn2cnc([N+](=O)[O-])n2)C(O)(C(F)(F)F)C1 (stereo not drawn)	IC50 at 48 h	> 100 µM

Given the molecule COc1ccc2nc(N(Cc3cccnc3)C(=O)C3CCC3)sc2c1 , write its reported IC50 at 48 h.
> 100 µM

In one line, give reported IC50 at 48 h of the entry CNc1cc(Cn2c(C(=O)c3cc(C)cc(Cl)c3)c(C(C)C)c(=O)[nH]c2=O)ccn1 .
> 100 µM

Look up and state reported IC50 at 48 h for NCc1csc(Nc2cc(Oc3ccccc3)ncn2)n1
> 100 µM

Specify reported IC50 at 48 h for the molecule shown: COc1ccc(CN2CCCCC2c2nc(-c3cccnc3)no2)cc1 (stereo not drawn)
> 100 µM

Identify IC50 at 48 h associated with the molecule OCCCNc1nc(Nc2ccncc2)nc2ccccc12
> 100 µM

Please supply the value of reported IC50 at 48 h for the item Cn1cncc1CN1CCC2(CC1)COC(Cc1ccccc1)C2 (stereo not drawn)
> 100 µM

Given N#Cc1ccc(C(=O)Nc2cccc(-c3cccc(CN4CCC(O)CC4)c3)c2)cc1 , respond with its IC50 at 48 h.
39.8 µM

Recall and state the measured IC50 at 48 h for Nc1nonc1-c1nc2cncc(C(=O)N3CC[C@H](N)C3)c2n1CC1CC1 .
> 100 µM

Recall and state the measured IC50 at 48 h for NC(=O)c1ccsc1NC(=O)c1ccc([N+](=O)[O-])s1 .
> 100 µM

Supply recorded IC50 at 48 h for O=c1[nH]cnc2c([C@@H]3O[C@H](CO)[C@@H](O)[C@H]3O)n[nH]c12 here.
> 100 µM

Specify IC50 at 48 h for COc1ccc([N+](=O)[O-])cc1NC(=O)Nc1cccc(Cl)c1 and stop.
> 100 µM

Determine its reported IC50 at 48 h: CCC(CC)C(=O)Nc1cccc(C(=O)Nc2nnc(C3CCCCC3)s2)c1
> 100 µM

Report IC50 at 48 h for Cc1[nH]c2ccccc2c(=O)c1Cc1c(C)[nH]c2ccccc2c1=O
> 100 µM

Return the recorded IC50 at 48 h value; entry: Cc1ccc(NC(C)C(=O)Nc2ccc(C#N)cc2)cc1S(=O)(=O)N1CCCCC1 (stereo not drawn)
79.4 µM

Name the recorded IC50 at 48 h of the item CCC(=O)Nc1ccc(-c2nc3ccc(Cl)cc3[nH]2)cc1 in your answer.
> 100 µM

Identify measured IC50 at 48 h associated with CCCN(Cc1ccc(OC)c(OC)c1)Cc1cc(=O)c2c(C)cc(C)cc2[nH]1
63.1 µM

// provenance: ChEMBL document CHEMBL3430912
